# test: WHO-TDR: Cytotoxicity
# Assay type: toxicity, cell-based
# measurement_parameters: human, MRC5 cells
Could you please report measured IC50 for the items listed next?

Some compounds with recorded IC50:
compound | IC50
Cc1cccc2sc(N(CCCn3ccnc3)C(=O)c3ccc(Cl)s3)nc12 | 5.04 µg/mL
COc1cccc(C(=O)Nc2nnc(-c3ccc4c(c3)CCCC4)o2)c1 | > 10.5 µg/mL
CCN(CC)CCSc1ccc(-c2ccc(Cl)cc2)nn1 | > 9.66 µg/mL

For each entry beneath this line, provide reported IC50.
1. CCc1ccc2nc(N(CCCn3ccnc3)C(=O)/C=C/c3cccs3)sc2c1
2. CCOC(=O)c1c(NC(=O)C(C)n2c(-n3nc(C)cc3C)nc(CC)cc2=O)sc2c1CCC2 (configuration not stated)
3. O=S(=O)(c1ccc(Cl)s1)N1CCN(c2ccc(-c3ccccn3)nn2)CC1
4. CCOc1ccc(-c2ccc(=O)n(CCCC(=O)Nc3ccccc3SC)n2)cc1

stdout:
["3.5 µg/mL", "> 14.5 µg/mL", "> 12.7 µg/mL", "> 12.7 µg/mL"]

###

Exercise: for every item that follows, state its recorded IC50.
# Tested on: Trypanosoma brucei brucei
# test: WHO-TDR: Human African Trypanosomiasis (HAT)
# Assay type: functional, organism-based
# measurement_parameters: Squib-427

Please review the entries below; each comes with its answer.
molecule | measured
COc1ccc(C(=O)Nc2nnc(SCC(=O)Nc3cc(C(F)(F)F)ccc3Cl)s2)cc1OC | > 16 µg/mL
Cc1cccc(NC(=O)Cn2nc(C(C)C)c3cnn(-c4ccccc4C)c3c2=O)c1 | > 12.5 µg/mL
CCCn1/c(=N/C(=O)C2=COCCO2)sc2c(C)ccc(OC)c21 | > 10.5 µg/mL
Cc1cccc(Nc2ccc(NCCNC(=O)Nc3ccccc3)nn2)n1 | > 10.9 µg/mL
O=S(=O)(CCCOc1ccc(F)cc1)N1CCc2ccccc21 | 3.22 µg/mL
O=C(/C=C/c1cccs1)N(CCCN1CCOCC1)c1nc2ccccc2s1 | 4.37 µg/mL

State the recorded IC50 for every item in the following list.
1. CCOC(=O)Cn1/c(=N/C(=O)c2ccccc2Br)sc2cc(S(C)(=O)=O)ccc21
2. CCC(=O)c1c(NC(=O)c2ccc(C)cc2)sc2c1CCN(CC)C2
3. O=C(CSc1nnc(NC(=O)c2ccccc2C(F)(F)F)s1)Nc1ccc2c(c1)OCO2
4. CC1CCc2[nH]nc(-c3nc(-c4ccc(Cl)cc4)no3)c2C1 (stereo not drawn)
5. O=S(=O)(c1ccccc1)N1CCN(c2ccc(Nc3ccncc3)nn2)CC1
6. CCn1ccnc1N1CCN(CC(=O)NC2CCCCC2)CC1
7. N#Cc1cnc2c(F)cccc2c1Nc1ccc(Br)cc1

stdout:
> 14.9 µg/mL
0.321 µg/mL
0.45 µg/mL
> 9.44 µg/mL
> 11.9 µg/mL
> 11.8 µg/mL
> 11.4 µg/mL

###

# Tested on: Trypanosoma brucei brucei
# test: WHO-TDR: Human African Trypanosomiasis (HAT)
# Format: functional, organism-based
# measurement_parameters: Squib-427
property_name: IC50

structure_string | tested_on | IC50
Cc1nn2c(=O)[nH]c(SCc3ccccn3)nc2c1-c1ccccc1 | Trypanosoma brucei brucei | > 10.5 µg/mL
Cc1ccc(SCC(=O)Nc2ccccc2-c2nc3ccccc3[nH]2)cc1 | Trypanosoma brucei brucei | > 11.2 µg/mL

The record that follows has no IC50 shown yet.
Record COc1cccc2c1CCN(Cc1ccc(Cl)cc1)C2=O , field IC50: > 9.05 µg/mL

###

# Tested on: Brugia malayi
# test: WHO-TDR: Lymphatic Filariasis
# Assay type: functional
# Parameters: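 tested at 10 µM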
For each of the molecules below, state its % Inhibition.
Numbers only, in %.

Here are 5 molecules together with their reported answers.
structure_string | measure_unit | measured
COc1ccc(S(=O)(=O)N2CCN(c3ccc(Nc4ccccn4)nn3)CC2)cc1 | % | 0
COc1ccc(CCC(=O)NCCc2ccc(N3CCCC3)cc2)cc1 | % | 0
O=C(c1ccc(F)c(F)c1)N1CCN(c2nccn2-c2cccc(Cl)c2)CC1 | % | 0
O=C(Nc1nnc(-c2ccc3c(c2)OCCO3)o1)c1cc(-c2ccccc2)nc2ccccc12 | % | 70
O=C(Nc1nnc(-c2cccnc2)o1)c1cccc(Br)c1 | % | 25

Hi team, please reply with % Inhibition for each item in this list.
1. CCCc1cc(=O)n(CC(=O)Nc2ccc(C)cc2)c(-n2nc(C)cc2C)n1
2. Cc1cc(C(=O)Nc2nnc(-c3ccco3)o2)on1
3. Cc1ccnc(Nc2ccc(NCCNS(=O)(=O)c3cccc(Cl)c3)nn2)c1

stdout:
[0, 20, 0]

###

For each entry below, report its IC50 value.
# System: Plasmodium falciparum K1
# test: WHO-TDR: Malaria
# Type: functional, organism-based, Homo sapiens
# measurement_parameters: Erythrocyte

For every item below, please supply its IC50.
1. COc1ccc(S(=O)(=O)N2CCN(c3ccc(-c4ccncc4)nn3)CC2)c(OC)c1
2. CCOC(=O)c1oc2ccccc2c1NC(=O)c1cc(C)no1
3. O=C(NCCNC(=O)c1cccc(Cl)c1)c1ccc(NC(=O)c2ccc(F)cc2)cc1
4. CC(C)c1cc(C(=O)NCC2CCCO2)nn1-c1nc2ccccc2s1 (stereo unspecified)
5. COc1cc(C)ccc1S(=O)(=O)NCCCn1nc(-c2ccc(F)cc2)ccc1=O
6. CN1CCCc2cc(C(CNC(=O)c3cccs3)N3CCCCC3)ccc21 (stereo unspecified)
7. Cc1ccnc(Nc2ccc(NCCNS(=O)(=O)c3cccc(Cl)c3)nn2)c1
8. Cc1ccc(-n2ccnc2N2CCN(C(=O)c3ccccc3SC(F)F)CC2)cc1

stdout:
1: 2.48 mg/L; 2: > 9.43 mg/L; 3: > 13.2 mg/L; 4: > 11.1 mg/L; 5: > 12.9 mg/L; 6: > 11.5 mg/L; 7: > 12.6 mg/L; 8: 3.65 mg/L

Give IC50 for each listed item.
1. OCc1cnc(SCc2ccccc2)n1Cc1ccccc1
2. CCNc1cc(C)nc(Nc2ccc(NS(=O)(=O)c3ccc4nc(C)sc4c3)cc2)n1
3. COc1ccccc1N1CCN(C(CNS(=O)(=O)c2c(C)cc(C)cc2C)c2cccnc2)CC1 (stereo unspecified)

stdout:
["9.31 mg/L", "1.18 mg/L", "0.78 mg/L"]

Go through the list and state IC50 for each entry.
1. O=C(Nc1nnc(-c2cccnc2)o1)c1cccc(C(F)(F)F)c1
2. CCn1ccc(C(=O)Nc2nc(C(C)(C)C)cs2)n1

stdout:
1. > 10 mg/L
2. > 8.35 mg/L

Provide reported IC50 for each item, in the same order as listed.
1. CCOC(=O)CCNC(=O)NCC1CC(=O)N(c2ccc(Cl)cc2)C1 (stereo unspecified)
2. O=C(Nc1ccc(OC(F)(F)F)cc1)c1csc(NS(=O)(=O)c2cccs2)n1
3. CS(=O)(=O)c1ccc2nc(Nc3nc4c(F)cccc4s3)sc2c1
4. O=C(Nc1nc(CSCc2ccc(F)cc2)cs1)c1ccco1
5. O=C1CC(CNS(=O)(=O)c2ccccc2C(F)(F)F)CN1c1ccc(Cl)cc1 (stereo unspecified)
6. CC(=O)c1ccc(C(=O)N(Cc2cccnc2)c2nc3c(F)cc(F)cc3s2)cc1
7. CC(C)CC(=O)NCCOc1ccc2nnc(-c3ccccc3)n2n1

stdout:
> 11 mg/L
> 13.5 mg/L
6.16 mg/L
> 10.5 mg/L
> 13 mg/L
6.29 mg/L
> 10.2 mg/L

###

Hi there, I'd appreciate the recorded IC50 for every entry that follows.
# System: Plasmodium falciparum K1
# test: WHO-TDR: Malaria
# Assay type: functional, organism-based, Homo sapiens
# measurement_parameters: Erythrocyte

Solved entries:
molecule | property_name | measured
COc1ccc(-c2cn3c(C(=O)Nc4ccc(F)cc4F)csc3n2)cc1 | IC50 | > 11.6 µg/mL
Fc1ccc(Nc2nc(N3CCCC3)nc(N3CCCC3)n2)cc1 | IC50 | > 10.9 µg/mL
CC1Cc2ccccc2N1C(=O)Cc1csc(SCC(=O)Nc2ccc(F)cc2)n1 (configuration not stated) | IC50 | > 13.2 µg/mL

List reported IC50 for each of these molecules:
1. CSc1cccc2sc(N3CCN(C(=O)c4ccccc4)CC3)nc12
2. CCSc1nc(-c2ccccc2)c(NC(C)=O)s1
3. O=C(Cc1ccc(Cl)cc1)NCCS(=O)(=O)N1CCN(Cc2ccccc2)CC1
4. CCc1ccc(S(=O)(=O)Nc2ccc3c(c2)NC(=O)C(C)(C)CO3)s1

stdout:
["> 11.1 µg/mL", "> 8.35 µg/mL", "> 14.2 µg/mL", "> 11.4 µg/mL"]

###

# Tested on: Trypanosoma brucei brucei
# test: WHO-TDR: Human African Trypanosomiasis (HAT)
# Assay type: functional, organism-based
# measurement_parameters: Squib-427
property_name: IC50

structure_string | IC50
CC(C)(C)n1ncc2c(=O)n(CCC(=O)NCc3ccccc3Cl)cnc21 | > 11.6 µg/mL
O=C(C1CCCC1)N1CCc2ccc(NS(=O)(=O)c3ccc4c(c3)OCCO4)cc21 | > 12.9 µg/mL
Cc1[nH]c2ccccc2c1S(=O)(=O)CCNC(=O)Nc1ccc(C(F)(F)F)cc1 | > 12.8 µg/mL
O=C(Nc1nc(-c2ccccn2)cs1)C1CCN(S(=O)(=O)c2cccs2)CC1 | > 13 µg/mL
CCc1nnc(NS(=O)(=O)c2ccc(NC(=O)c3nc4ccccc4s3)cc2)s1 | > 13.4 µg/mL

Quick one: give me IC50 for each item below, same order please.
1. COc1ccc(OC)c(Nc2nc(CC(=O)NCc3ccccc3Cl)cs2)c1
2. CCOc1ccc(C(=O)Nc2nc3c(Cl)ccc(Cl)c3s2)cc1
3. O=C(Cc1ccc(Cl)cc1)Nc1cccc(-c2nc3cccnc3s2)c1

stdout:
1. > 12.5 µg/mL
2. > 11 µg/mL
3. > 11.4 µg/mL
